Reference source for all entries: patent US11013780B2

Experiment: Pharmacokinetics in dogs after SC and IV administration
Conditions: dog, in vivo; dogs, SC 10 mg/kg; read-out: Cmax
Where a SMILES comes first, the peptide text is derived from it. [ ]: non-standard residue; d: D form. Arg(Me) = CNC(=N)NCCC[C@H](N)C(=O)O; Hyp = O=C(O)[C@@H]1C[C@@H](O)CN1; azaGly = NNC(=O)O
Measured Parameter: Cmax (ng/mL)
The figure you give is taken to be in ng/mL; do not add the unit.

response.value for CC(=O)O.CNC(=N)NCCC[C@H](NC(=O)[C@H](CC(C)C)NC(=O)NNC(=O)[C@H](Cc1ccccc1)NC(=O)[C@@H](NC(=O)[C@H](CC(N)=O)NC(=O)[C@@H]1C[C@@H](O)CN1C(=O)[C@@H](Cc1ccc(O)cc1)NC(C)=O)[C@@H](C)O)C(=O)N[C@@H](Cc1c[nH]c2ccccc12)C(N)=O [API-MA] (Ac-[dY][Hyp]NTF[azaGly]L[Arg(Me)]W-NH2) (field: Cmax) = 8840

* * *

Assay: PK across species (rats, dogs, monkeys), SC bioavailability
Type: in vivo
Details: rat, dog, monkey, plasma, read-out: Bioavailability after SC administration
Excerpt: The PK of API-MA was studied in rats, dogs, and monkeys.
Where a SMILES comes first, the peptide text is derived from it. [ ]: non-standard residue; d: D form. Arg(Me) = CNC(=N)NCCC[C@H](N)C(=O)O; Hyp = O=C(O)[C@@H]1C[C@@H](O)CN1; azaGly = NNC(=O)O
Measured Parameter: bioavailability

response.value for CC(=O)O.CNC(=N)NCCC[C@H](NC(=O)[C@H](CC(C)C)NC(=O)NNC(=O)[C@H](Cc1ccccc1)NC(=O)[C@@H](NC(=O)[C@H](CC(N)=O)NC(=O)[C@@H]1C[C@@H](O)CN1C(=O)[C@@H](Cc1ccc(O)cc1)NC(C)=O)[C@@H](C)O)C(=O)N[C@@H](Cc1c[nH]c2ccccc12)C(N)=O [API-MA] (Ac-[dY][Hyp]NTF[azaGly]L[Arg(Me)]W-NH2) (field: bioavailability) = > 55%

* * *

Assay: Single dose PK, phase 1, healthy Japanese men
Type: in vivo, human
Conditions: male, human, plasma, subcutaneous, 0.5 mg, 0.25 and 0.5 mg, read-out: Mean T1/2 at the highest doses
Where a SMILES comes first, the peptide text is derived from it. [ ]: non-standard residue; d: D form. Arg(Me) = CNC(=N)NCCC[C@H](N)C(=O)O; Hyp = O=C(O)[C@@H]1C[C@@H](O)CN1; azaGly = NNC(=O)O
Measured Parameter: half-life

response.value for CC(=O)O.CNC(=N)NCCC[C@H](NC(=O)[C@H](CC(C)C)NC(=O)NNC(=O)[C@H](Cc1ccccc1)NC(=O)[C@@H](NC(=O)[C@H](CC(N)=O)NC(=O)[C@@H]1C[C@@H](O)CN1C(=O)[C@@H](Cc1ccc(O)cc1)NC(C)=O)[C@@H](C)O)C(=O)N[C@@H](Cc1c[nH]c2ccccc12)C(N)=O [API-MA] (Ac-[dY][Hyp]NTF[azaGly]L[Arg(Me)]W-NH2) (field: half-life) = 3.77 to 4.27 h

* * *

Assay: Pharmacokinetics in rats after SC and IV administration
Details: rat, in vivo, sc, 10 mg/kg
Where a SMILES comes first, the peptide text is derived from it. [ ]: non-standard residue; d: D form. Arg(Me) = CNC(=N)NCCC[C@H](N)C(=O)O; Hyp = O=C(O)[C@@H]1C[C@@H](O)CN1; azaGly = NNC(=O)O
Measured Parameter: Tmax (min)
The figure you give is taken to be in min; do not add the unit.

response.value for CNC(=N)NCCC[C@H](NC(=O)[C@H](CC(C)C)NC(=O)NNC(=O)[C@H](Cc1ccccc1)NC(=O)[C@@H](NC(=O)[C@H](CC(N)=O)NC(=O)[C@@H]1C[C@@H](O)CN1C(=O)[C@@H](Cc1ccc(O)cc1)NC(C)=O)[C@@H](C)O)C(=O)N[C@@H](Cc1c[nH]c2ccccc12)C(N)=O [Compound 1] (Ac-[dY][Hyp]NTF[azaGly]L[Arg(Me)]W-NH2) (field: Tmax) = 18

* * *

Experiment: Multiple-dose PK, 2-hour SC infusion once daily for 14 days, Japanese prostate cancer patients
Format: in vivo, human
Settings: male, human, in vivo, sc, 1 mg/day, Japanese prostate cancer patients, 2-hour SC infusion 1.0 mg/day, Day 1, mean
Where a SMILES comes first, the peptide text is derived from it. [ ]: non-standard residue; d: D form. Arg(Me) = CNC(=N)NCCC[C@H](N)C(=O)O; Hyp = O=C(O)[C@@H]1C[C@@H](O)CN1; azaGly = NNC(=O)O
Measured Parameter: Tmax (h)
The figure you give is taken to be in h; do not add the unit.

response.value for CC(=O)O.CNC(=N)NCCC[C@H](NC(=O)[C@H](CC(C)C)NC(=O)NNC(=O)[C@H](Cc1ccccc1)NC(=O)[C@@H](NC(=O)[C@H](CC(N)=O)NC(=O)[C@@H]1C[C@@H](O)CN1C(=O)[C@@H](Cc1ccc(O)cc1)NC(C)=O)[C@@H](C)O)C(=O)N[C@@H](Cc1c[nH]c2ccccc12)C(N)=O [API-MA] (Ac-[dY][Hyp]NTF[azaGly]L[Arg(Me)]W-NH2) (field: Tmax) = 2.11

* * *

Test: Pharmacokinetics in monkeys after SC and IV administration
Details: monkey, in vivo, sc, 0.1 mg/kg
Where a SMILES comes first, the peptide text is derived from it. [ ]: non-standard residue; d: D form. Arg(Me) = CNC(=N)NCCC[C@H](N)C(=O)O; Hyp = O=C(O)[C@@H]1C[C@@H](O)CN1; azaGly = NNC(=O)O
Measured Parameter: bioavailability (%)
The figure you give is taken to be in %; do not add the unit.

response.value for CNC(=N)NCCC[C@H](NC(=O)[C@H](CC(C)C)NC(=O)NNC(=O)[C@H](Cc1ccccc1)NC(=O)[C@@H](NC(=O)[C@H](CC(N)=O)NC(=O)[C@@H]1C[C@@H](O)CN1C(=O)[C@@H](Cc1ccc(O)cc1)NC(C)=O)[C@@H](C)O)C(=O)N[C@@H](Cc1c[nH]c2ccccc12)C(N)=O [Compound 1] (Ac-[dY][Hyp]NTF[azaGly]L[Arg(Me)]W-NH2) (field: bioavailability) = 94.9

* * *

Assay: Single dose PK, phase 1, healthy European men
Format: in vivo, human
Settings: male, human, plasma, single SC 0.001 mg, geometric mean
Where a SMILES comes first, the peptide text is derived from it. [ ]: non-standard residue; d: D form. Arg(Me) = CNC(=N)NCCC[C@H](N)C(=O)O; Hyp = O=C(O)[C@@H]1C[C@@H](O)CN1; azaGly = NNC(=O)O
Measured Parameter: CL/F (mL/min)
The figure you give is taken to be in mL/min; do not add the unit.

response.value for CC(=O)O.CNC(=N)NCCC[C@H](NC(=O)[C@H](CC(C)C)NC(=O)NNC(=O)[C@H](Cc1ccccc1)NC(=O)[C@@H](NC(=O)[C@H](CC(N)=O)NC(=O)[C@@H]1C[C@@H](O)CN1C(=O)[C@@H](Cc1ccc(O)cc1)NC(C)=O)[C@@H](C)O)C(=O)N[C@@H](Cc1c[nH]c2ccccc12)C(N)=O [API-MA] (Ac-[dY][Hyp]NTF[azaGly]L[Arg(Me)]W-NH2) (field: CL/F) = 351

* * *

Assay: Single dose PK, phase 1, healthy Japanese men
Assay type: in vivo, human
Conditions: male, human, plasma, sc, 0.01 mg, single SC bolus 0.01 mg, mean, read-out: T½ (converted)
Where a SMILES comes first, the peptide text is derived from it. [ ]: non-standard residue; d: D form. Arg(Me) = CNC(=N)NCCC[C@H](N)C(=O)O; Hyp = O=C(O)[C@@H]1C[C@@H](O)CN1; azaGly = NNC(=O)O
Measured Parameter: half-life (h)
The figure you give is taken to be in h; do not add the unit.

response.value for CC(=O)O.CNC(=N)NCCC[C@H](NC(=O)[C@H](CC(C)C)NC(=O)NNC(=O)[C@H](Cc1ccccc1)NC(=O)[C@@H](NC(=O)[C@H](CC(N)=O)NC(=O)[C@@H]1C[C@@H](O)CN1C(=O)[C@@H](Cc1ccc(O)cc1)NC(C)=O)[C@@H](C)O)C(=O)N[C@@H](Cc1c[nH]c2ccccc12)C(N)=O [API-MA] (Ac-[dY][Hyp]NTF[azaGly]L[Arg(Me)]W-NH2) (field: half-life) = 1.82

* * *

Assay: Single dose PK, phase 1, healthy European men
Type: in vivo, human
Conditions: male, human, plasma, single SC 0.03 mg, geometric mean
Where a SMILES comes first, the peptide text is derived from it. [ ]: non-standard residue; d: D form. Arg(Me) = CNC(=N)NCCC[C@H](N)C(=O)O; Hyp = O=C(O)[C@@H]1C[C@@H](O)CN1; azaGly = NNC(=O)O
Measured Parameter: AUC(0-inf)
Express the reported value numerically, then name its unit.

response.value for CC(=O)O.CNC(=N)NCCC[C@H](NC(=O)[C@H](CC(C)C)NC(=O)NNC(=O)[C@H](Cc1ccccc1)NC(=O)[C@@H](NC(=O)[C@H](CC(N)=O)NC(=O)[C@@H]1C[C@@H](O)CN1C(=O)[C@@H](Cc1ccc(O)cc1)NC(C)=O)[C@@H](C)O)C(=O)N[C@@H](Cc1c[nH]c2ccccc12)C(N)=O [API-MA] (Ac-[dY][Hyp]NTF[azaGly]L[Arg(Me)]W-NH2) (field: AUC(0-inf)) = 1.11 ng·h/mL
